# Lookup of reported phosphorylation enrichment keyed by entry
- Assayed Target: Jak2 (UniProt O60674)
- Sequence (O60674 whole entry, looked up): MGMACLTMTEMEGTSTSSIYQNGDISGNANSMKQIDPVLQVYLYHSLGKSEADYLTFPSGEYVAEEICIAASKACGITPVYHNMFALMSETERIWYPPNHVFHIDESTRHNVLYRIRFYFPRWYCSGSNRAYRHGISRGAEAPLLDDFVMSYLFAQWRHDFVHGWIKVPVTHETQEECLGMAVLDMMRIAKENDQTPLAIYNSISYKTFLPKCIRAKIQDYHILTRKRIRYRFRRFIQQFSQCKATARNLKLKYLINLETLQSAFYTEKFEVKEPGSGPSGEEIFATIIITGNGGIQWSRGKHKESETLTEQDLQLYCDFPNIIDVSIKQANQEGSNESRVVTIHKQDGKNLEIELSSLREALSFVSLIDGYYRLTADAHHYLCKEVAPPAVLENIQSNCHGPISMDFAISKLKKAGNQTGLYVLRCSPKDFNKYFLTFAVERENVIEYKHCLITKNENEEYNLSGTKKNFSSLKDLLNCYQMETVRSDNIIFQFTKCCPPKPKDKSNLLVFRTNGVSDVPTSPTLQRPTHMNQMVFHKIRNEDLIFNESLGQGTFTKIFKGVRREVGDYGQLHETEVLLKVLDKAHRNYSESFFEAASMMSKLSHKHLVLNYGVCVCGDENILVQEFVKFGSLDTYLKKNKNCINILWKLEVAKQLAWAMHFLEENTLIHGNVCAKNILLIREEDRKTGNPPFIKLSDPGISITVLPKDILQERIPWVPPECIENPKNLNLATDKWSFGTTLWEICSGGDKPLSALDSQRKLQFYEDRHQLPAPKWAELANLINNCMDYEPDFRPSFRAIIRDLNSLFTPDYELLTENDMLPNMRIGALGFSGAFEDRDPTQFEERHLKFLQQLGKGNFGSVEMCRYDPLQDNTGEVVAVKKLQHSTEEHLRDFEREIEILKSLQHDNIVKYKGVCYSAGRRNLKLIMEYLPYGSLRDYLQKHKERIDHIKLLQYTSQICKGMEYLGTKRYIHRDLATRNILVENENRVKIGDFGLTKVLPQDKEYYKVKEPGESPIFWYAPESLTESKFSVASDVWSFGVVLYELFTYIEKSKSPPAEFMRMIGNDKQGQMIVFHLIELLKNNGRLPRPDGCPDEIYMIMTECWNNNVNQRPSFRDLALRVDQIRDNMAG
- Assay Remarks: phosphorylation enrichment, bacterial display (enrichment ratio); higher = better substrate or ligand; peptides without Tyr show the background;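 further: 11-residue human phosphosite peptides and single-mutation variants displayed on the E. coli surface, counted by deep sequencing, each peptide's frequency after selection divided by its frequency in the unselected input library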;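 further: frequency after pTyr selection over input frequency; kinase dosed for 20-30% of maximal phosphorylation in three min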
Recorded Endpoint: phosphorylation enrichment

1) SLLLSYYLIKW [NUP160_Y773_P768S] : 2.23
2) FSDQVYRQRRK [TH_Y230] : 0.658
3) ADRTRYSAFGG [RBM4_Y361_A359T] : 0.551
4) KYRREYILSLE [GPC3_Y299_W296R] : 0.628
5) KMKGDYYCYLA [YWHAG_Y130_R132C] : 3.93
6) KIIRRYVSSEG [ANK2_Y3907] : 0.531
7) SSWPGYVRPLP [HSPB1_Y54] : 2.22
